Consider the following variants; for each one, report its protein stability index.
B1: TNXB (parent)
chain: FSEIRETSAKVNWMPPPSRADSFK

variants of: B1; test: protein stability index of a GFP-peptide fusion (GPS, HEK-293T) (PSI 1-6); higher = more stable; settings: c terminus: a fixed tail appended;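 note: lentivirally expressed fusions sorted by FACS into six bins by GFP to DsRed ratio, PSI derived from sequencing read proportions per bin multiplied by bin number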
Numbers only.

Residue change: W13S
Reading: 3.83

Give protein stability index for each listed item.
1. D21P
2. F23A

3.61
4.04

This collection of values is drawn from the supplement of paper PMC10567573.
